Source listed as patent US20210355194A1.

So I've got a bunch of binders here, and I need their ELISA fold over background values.
molecular target: S1 Fc fusion protein (SARS-CoV-2, UniProt P0DTC2 14-685); test: phage ELISA
Numbers only, in fold.

In the examples that follow, each entry is paired with its recorded ELISA fold over background.
Identify ELISA fold over background associated with the binder SARS-CoV-2 variant 1-23 (antibody, V domains shown) VH: EVQLLESGGGLVQPGGSLRLSCAASGFTFSSYAISWVRQAPGKGLEWVSIISGSGGSTYYADSVKGRFTISRDNSKNTLYLQMNSLRAEDTAVYYCAREGYRDYLWYFDLWGQGTLVTVSS VL: QSALTQPASVSGSPGQSITISCTGTSNDVGSYNLVSWYQQHPGKAPKLMIYEGNKRPSGVSNRFSGSKSGNTASLTISGLQAEDEADYYCCSYAGSYTVFGGGTKLTVL
1.6

Identify ELISA fold over background associated with the binder SARS-CoV-2 variant 1-35 (antibody, V domains shown) VH: EVQLLESGGGLVQPGGSLRLSCAASGFTFSNYAMSWVRQAPGKGLEWVSDISGSGGSTYYADSVKGRFTISRDNSKNTLYLQMNSLRAEDTAVYYCVKGTIPIFGVIRSAFDYWGQGTLVTVSS VL: QSALTQPASVSGSPGQSITISCTGTSSDVGSYSLVSWYQQHPGKAPKLMIYEGTKRPSGVSNRFSGSKSGNTASLTISGLQAEDEADYYCCSYAGSYSYVVFGGGTKLTVL
1.4

Identify ELISA fold over background associated with the binder SARS-CoV-2 variant 1-3 (antibody, V domains shown) VH: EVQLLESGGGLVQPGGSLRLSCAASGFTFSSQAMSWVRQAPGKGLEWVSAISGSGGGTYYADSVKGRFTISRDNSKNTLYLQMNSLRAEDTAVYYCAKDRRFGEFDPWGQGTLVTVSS VL: QSALTQPASVSGSPGQSITISCTGISSDVGSYNLVSWYQQHPGKAPKLMIYEGTKRPSGVSNRFSGSKSGNTASLTISGLQAEDEADYYCCSYAGSSSFVVFGGGTKLTVL
1.5

Identify ELISA fold over background associated with the binder SARS-CoV-2 variant 1-36 (antibody, V domains shown) VH: EVQLLESGGGLVQPGGSLRLSCAASGLTFSSYAMSWVRQAPGKGLEWVSDISGSGGSTYYADSVKGRFTISRDNSKNTLYLQMNSLRAEDTAVYYCVKGTIPIFGVIRSAFDYWGQGTLVTVSS VL: QSALTQPASVSGSPGQSITISCTGTSSDVGSYSLVSWYQQHPGKAPKLMIYEGDKRPSGVSNRFSGSKSGNTASLTISGLQAEDEADYYCCSYAGSYSYVVFGGGTKLTVL
1.1

New cases:
Identify ELISA fold over background associated with the binder SARS-CoV-2 variant 1-24 (antibody, V domains shown) VH: EVQLLESGGGLVQPGGSLRLSCAASGFTFSSYAMNWVRQAPGKGLEWVSIISGSGGSTYYADSVKGRFTISRDNSKNTLYLQMNSLRAEDTAVYYCAREGYRDYLWYFDLWGQGTLVTVSS VL: QSALTQPASVSGSPGQSITISCTGTSSDVGYYNLVSWYQQHPGKAPKLMIYEGNKRPSGVSNRFSGSKSGNTASLTISGLQAEDEADYYCCSYAGGSVVFGGGTKLTVL
1.1
